Each item that follows carries a reported IC50.
Biological target: L-CPT1 (human liver CPT1) (Homo sapiens, UniProt P50416)
Construct: crude cell-free extracts
Sequence (P50416 1-773): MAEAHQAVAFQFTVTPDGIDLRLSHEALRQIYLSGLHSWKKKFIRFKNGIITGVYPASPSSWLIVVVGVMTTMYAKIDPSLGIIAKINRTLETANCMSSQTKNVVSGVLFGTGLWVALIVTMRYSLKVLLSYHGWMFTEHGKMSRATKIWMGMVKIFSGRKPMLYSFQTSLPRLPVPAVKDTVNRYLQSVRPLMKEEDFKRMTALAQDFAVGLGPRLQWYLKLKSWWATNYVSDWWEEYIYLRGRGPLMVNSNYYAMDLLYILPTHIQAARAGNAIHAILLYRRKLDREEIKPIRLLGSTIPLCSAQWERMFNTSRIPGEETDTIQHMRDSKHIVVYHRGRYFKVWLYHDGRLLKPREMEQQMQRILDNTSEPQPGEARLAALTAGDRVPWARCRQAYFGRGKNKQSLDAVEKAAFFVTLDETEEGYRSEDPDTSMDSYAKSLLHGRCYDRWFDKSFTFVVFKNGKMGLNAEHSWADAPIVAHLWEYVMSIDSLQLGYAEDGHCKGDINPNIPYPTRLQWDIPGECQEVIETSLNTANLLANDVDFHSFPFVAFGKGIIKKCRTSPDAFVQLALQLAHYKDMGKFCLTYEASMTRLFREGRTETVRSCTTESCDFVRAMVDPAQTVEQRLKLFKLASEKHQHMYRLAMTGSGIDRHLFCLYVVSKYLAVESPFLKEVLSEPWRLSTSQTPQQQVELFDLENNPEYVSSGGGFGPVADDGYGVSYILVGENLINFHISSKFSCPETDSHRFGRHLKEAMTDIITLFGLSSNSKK
Assay: L-CPT1 inhibition, spectrophotometric CPT activity assay with DTNB (Ellman's reagent)
Details: human liver CPT1 expressed in P. pastoris, cell extracts; carnitine 500 μM, palmitoyl-CoA 80 μM, DTNB 300 μM, pH 7.4
Write the answer as a number in µM, unit excluded.

{"columns": ["Smiles Text", "IC50 (µM)"],
 "data": [
  ["O=C(O)Cc1ccc(NC(=O)c2ccc3c(c2)N(S(=O)(=O)c2cccc(Cl)c2)CC3)cc1", 0.125]
]}

Read the next record carefully.
Give recorded IC50. `COc1ccc(Cl)cc1S(=O)(=O)N1CCc2c(C)cc(C(=O)Nc3ccc(CC(=O)O)cc3)cc21`
0.21

These measurements were taken from patent US7799933B2.
